Biological target: T1, CD32a-R131 (FcgRIIa-R131) (Homo sapiens, UniProt P12318, H167R)
T1 sequence (P12318 34-217 H167R limits assumed): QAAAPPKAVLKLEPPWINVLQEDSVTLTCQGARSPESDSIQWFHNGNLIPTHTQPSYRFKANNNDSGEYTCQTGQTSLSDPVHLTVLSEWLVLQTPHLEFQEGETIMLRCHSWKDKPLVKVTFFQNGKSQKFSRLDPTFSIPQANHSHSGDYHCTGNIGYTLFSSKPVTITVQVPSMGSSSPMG
Test: SPR binding to FcgR-his: CD32a-R131
Settings: 1 μM antibody, anti-his Fab captured FcgR-his
property: % Rmax, binding to hCD32a-R131 (%)
Quick note: give the figure in %, leave out the unit.

# molecule, result-unit, % Rmax, binding to hCD32a-R131
measured = [
    ("mAb7-IgG2.3G1-AY-V27 (protein, left off: another chain or arm of the molecule) constant: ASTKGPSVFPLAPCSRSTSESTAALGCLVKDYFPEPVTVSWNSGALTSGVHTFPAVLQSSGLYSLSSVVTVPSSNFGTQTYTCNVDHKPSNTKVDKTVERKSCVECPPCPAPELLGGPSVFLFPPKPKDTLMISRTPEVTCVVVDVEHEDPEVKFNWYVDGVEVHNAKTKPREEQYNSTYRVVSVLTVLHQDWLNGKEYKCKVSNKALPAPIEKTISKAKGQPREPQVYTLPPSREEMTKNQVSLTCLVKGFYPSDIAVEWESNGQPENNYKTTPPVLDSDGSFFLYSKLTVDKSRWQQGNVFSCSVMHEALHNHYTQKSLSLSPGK", "%", 92),
]

// next entry
Prompt: So what's the measured % Rmax, binding to hCD32a-R131 for this one? mAb6-IgG2.5 (protein, left off: another chain or arm of the molecule) constant: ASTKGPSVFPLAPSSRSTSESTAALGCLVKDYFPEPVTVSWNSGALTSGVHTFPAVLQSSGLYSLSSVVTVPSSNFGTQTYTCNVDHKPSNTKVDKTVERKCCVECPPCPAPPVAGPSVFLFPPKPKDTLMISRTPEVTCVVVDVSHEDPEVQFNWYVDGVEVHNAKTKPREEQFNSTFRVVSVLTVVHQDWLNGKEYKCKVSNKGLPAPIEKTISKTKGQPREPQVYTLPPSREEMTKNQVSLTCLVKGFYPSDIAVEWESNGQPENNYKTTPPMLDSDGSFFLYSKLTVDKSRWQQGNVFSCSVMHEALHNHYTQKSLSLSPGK
Completion: 17
